Recorded values, source patent US20090011988A1.

# Test system: recombinant human IGFBP-3 (human, UniProt P17936 28-291)
# Sequence (P17936 28-291 limits assumed): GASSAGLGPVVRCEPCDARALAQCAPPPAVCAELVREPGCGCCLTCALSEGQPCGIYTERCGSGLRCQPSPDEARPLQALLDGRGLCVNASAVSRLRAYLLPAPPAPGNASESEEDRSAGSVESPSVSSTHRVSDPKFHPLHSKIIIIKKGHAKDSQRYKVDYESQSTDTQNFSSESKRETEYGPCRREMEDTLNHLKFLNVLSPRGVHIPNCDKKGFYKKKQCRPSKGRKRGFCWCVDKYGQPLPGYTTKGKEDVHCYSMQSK
# Measurement protocol: BIAcore competition, IGFBP-3 to immobilized IGF-1
Positions of bridges follow the written chain, without caps; N, C: chain ends. No end group written: not given here.
Parameter measured: pIC50
# pIC50: negative log10 of molar concentration; output just the value

Q: Which measured pIC50 value corresponds to SEEVCWPVAEWYLCN (disulfide 5-14) [BP3-15] ?
Ans: 6.12
